Target: T1, CD3ε homodimer protein (human, UniProt P07766 23-126, limits assumed, sulfo-tag or biotin label in some ECL assays)
T1 construct: also called human CD3ε homodimer protein; CD3 (CD3ε)
T1 sequence (P07766 23-126 limits assumed): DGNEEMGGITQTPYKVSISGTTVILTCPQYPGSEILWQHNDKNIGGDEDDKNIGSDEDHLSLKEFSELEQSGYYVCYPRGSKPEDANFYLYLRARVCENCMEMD
Assay: SPR, CD3ε homodimer on chip;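 note: biacore SPR with antibody variants flowed as analyte over amine-coupled CD3ε homodimer on a CM chip, bound amount of each single-residue H chain variant over that of parent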
Mark yes (1) only for ratio of amounts bound vs CE115HA000 values smaller than 0.6; exact matches and larger values are no (0).

Observe how each entry below is paired with its result.
- CE115HA000 H35L (antibody, name in Kabat numbering, V domains shown) VH: QVQLVESGGGVVQPGRSLRLSCAASGFTFSNAWMLWVRQAPGKGLEWVAQIKAKSNNYATYYAESVKGRFTISRDDSKNSLYLQMNSLKTEDTAVYYCRYVHYGAYYGVDAWGQGTTVTVSS VL: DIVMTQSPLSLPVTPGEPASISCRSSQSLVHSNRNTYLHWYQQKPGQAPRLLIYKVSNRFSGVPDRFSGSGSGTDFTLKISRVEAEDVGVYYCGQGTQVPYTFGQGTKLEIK: yes (1)
- CE115HA000 A52aG (antibody, name in Kabat numbering, V domains shown) VH: QVQLVESGGGVVQPGRSLRLSCAASGFTFSNAWMHWVRQAPGKGLEWVAQIKGKSNNYATYYAESVKGRFTISRDDSKNSLYLQMNSLKTEDTAVYYCRYVHYGAYYGVDAWGQGTTVTVSS VL: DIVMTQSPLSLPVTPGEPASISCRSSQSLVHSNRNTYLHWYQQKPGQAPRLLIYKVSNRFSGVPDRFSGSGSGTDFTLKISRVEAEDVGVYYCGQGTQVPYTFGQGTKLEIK: no (0)
- CE115HA000 R19T (antibody, name in Kabat numbering, V domains shown) VH: QVQLVESGGGVVQPGRSLTLSCAASGFTFSNAWMHWVRQAPGKGLEWVAQIKAKSNNYATYYAESVKGRFTISRDDSKNSLYLQMNSLKTEDTAVYYCRYVHYGAYYGVDAWGQGTTVTVSS VL: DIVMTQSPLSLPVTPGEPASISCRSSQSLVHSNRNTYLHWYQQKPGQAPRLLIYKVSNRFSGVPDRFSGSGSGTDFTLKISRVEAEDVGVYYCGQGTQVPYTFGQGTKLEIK: no (0)
- CE115HA000 N31W (antibody, name in Kabat numbering, V domains shown) VH: QVQLVESGGGVVQPGRSLRLSCAASGFTFSWAWMHWVRQAPGKGLEWVAQIKAKSNNYATYYAESVKGRFTISRDDSKNSLYLQMNSLKTEDTAVYYCRYVHYGAYYGVDAWGQGTTVTVSS VL: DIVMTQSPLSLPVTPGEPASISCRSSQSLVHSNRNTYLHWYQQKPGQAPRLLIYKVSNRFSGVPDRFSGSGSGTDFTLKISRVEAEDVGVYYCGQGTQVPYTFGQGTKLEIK: no (0)

Query: Just wondering, is ratio of amounts bound vs CE115HA000 of CE115HA000 N31H (antibody, name in Kabat numbering, V domains shown) VH: QVQLVESGGGVVQPGRSLRLSCAASGFTFSHAWMHWVRQAPGKGLEWVAQIKAKSNNYATYYAESVKGRFTISRDDSKNSLYLQMNSLKTEDTAVYYCRYVHYGAYYGVDAWGQGTTVTVSS VL: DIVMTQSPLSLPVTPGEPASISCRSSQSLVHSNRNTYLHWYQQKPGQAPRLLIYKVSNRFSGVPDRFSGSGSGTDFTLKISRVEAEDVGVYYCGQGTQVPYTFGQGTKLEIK below 0.6?
Response: no (0)

Query: Just wondering, is ratio of amounts bound vs CE115HA000 of CE115HA000 Y100V (antibody, name in Kabat numbering, V domains shown) VH: QVQLVESGGGVVQPGRSLRLSCAASGFTFSNAWMHWVRQAPGKGLEWVAQIKAKSNNYATYYAESVKGRFTISRDDSKNSLYLQMNSLKTEDTAVYYCRYVHYGAVYGVDAWGQGTTVTVSS VL: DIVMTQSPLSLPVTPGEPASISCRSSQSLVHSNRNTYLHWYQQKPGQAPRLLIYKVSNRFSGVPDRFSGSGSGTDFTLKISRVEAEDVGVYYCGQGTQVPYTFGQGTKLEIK below 0.6?
Response: no (0)

Query: Just wondering, is ratio of amounts bound vs CE115HA000 of CE115HA000 H35Y (antibody, name in Kabat numbering, V domains shown) VH: QVQLVESGGGVVQPGRSLRLSCAASGFTFSNAWMYWVRQAPGKGLEWVAQIKAKSNNYATYYAESVKGRFTISRDDSKNSLYLQMNSLKTEDTAVYYCRYVHYGAYYGVDAWGQGTTVTVSS VL: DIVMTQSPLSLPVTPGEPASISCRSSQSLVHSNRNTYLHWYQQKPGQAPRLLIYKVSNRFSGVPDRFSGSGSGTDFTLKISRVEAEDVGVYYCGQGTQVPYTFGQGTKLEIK below 0.6?
Response: yes (1)

Query: Just wondering, is ratio of amounts bound vs CE115HA000 of CE115HA000 Q50Y (antibody, name in Kabat numbering, V domains shown) VH: QVQLVESGGGVVQPGRSLRLSCAASGFTFSNAWMHWVRQAPGKGLEWVAYIKAKSNNYATYYAESVKGRFTISRDDSKNSLYLQMNSLKTEDTAVYYCRYVHYGAYYGVDAWGQGTTVTVSS VL: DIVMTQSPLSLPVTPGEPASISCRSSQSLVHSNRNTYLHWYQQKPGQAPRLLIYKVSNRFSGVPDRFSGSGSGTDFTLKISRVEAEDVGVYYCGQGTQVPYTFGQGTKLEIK below 0.6?
Response: yes (1)

Query: Just wondering, is ratio of amounts bound vs CE115HA000 of CE115HA000 Y97D (antibody, name in Kabat numbering, V domains shown) VH: QVQLVESGGGVVQPGRSLRLSCAASGFTFSNAWMHWVRQAPGKGLEWVAQIKAKSNNYATYYAESVKGRFTISRDDSKNSLYLQMNSLKTEDTAVYYCRYVHDGAYYGVDAWGQGTTVTVSS VL: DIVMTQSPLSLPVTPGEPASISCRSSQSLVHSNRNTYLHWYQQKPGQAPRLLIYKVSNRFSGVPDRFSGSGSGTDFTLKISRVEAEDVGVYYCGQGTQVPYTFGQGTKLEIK below 0.6?
Response: yes (1)

Query: Just wondering, is ratio of amounts bound vs CE115HA000 of CE115HA000 N31Q (antibody, name in Kabat numbering, V domains shown) VH: QVQLVESGGGVVQPGRSLRLSCAASGFTFSQAWMHWVRQAPGKGLEWVAQIKAKSNNYATYYAESVKGRFTISRDDSKNSLYLQMNSLKTEDTAVYYCRYVHYGAYYGVDAWGQGTTVTVSS VL: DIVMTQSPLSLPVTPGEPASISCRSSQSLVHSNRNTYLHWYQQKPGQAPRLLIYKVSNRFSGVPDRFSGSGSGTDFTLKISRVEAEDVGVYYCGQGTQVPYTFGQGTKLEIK below 0.6?
Response: yes (1)
